Test system: UACC-62
Test: NCI tumour cell line growth inhibition, 48 h
Calls of active or inactive are those of the source. Cut-off read from the data, not from the text of the source: active = GI50 up to about 1.1 µM and inactive = higher. Where a SMILES comes first, the peptide text is derived from it. [ ]: non-standard residue; d: D form. The star is where a group is joined. Hyp = O=C(O)[CH]1C[CH](O)CN1; Cbz = O=C(OCc1ccccc1)*
# valid calls are active, inactive; nothing else

## Input Hi, sorry to bother you, what did the test record for O=C(O)CCC1CCc2cccc(O)c2C1=O (stereo not drawn) ?
## Output inactive

## Input Hi, sorry to bother you, what did the test record for NC(=O)CNC(=O)C1CC(O)CN1C(=O)C1CCCN1C(=O)OCc1ccccc1 (stereo not drawn) (Cbz-Pro-[Hyp]-Gly-NH2; configuration not given here) ?
## Output inactive

## Input Hi, sorry to bother you, what did the test record for `COc1cc(/C=C\c2nnc(/C=C\c3ccc(O)c(OC)c3)s2)ccc1O` ?
## Output inactive

## Input Hi, sorry to bother you, what did the test record for C=CCOc1cc2c(cc1C(C)c1ccc(OC)cc1)OCO2 (stereo not drawn) ?
## Output active

## Input Hi, sorry to bother you, what did the test record for `CN1CCN(C(=S)N(C)C(=O)c2ccc(Cl)cc2)CC1` ?
## Output inactive

## Input Hi, sorry to bother you, what did the test record for Cc1c(O)c(OC2OC(CO)C(O)C(O)C2O)cc2c1CC[C@@H]1C2(C)C(=O)C[C@]2(C)[C@@H]([C@@](C)(O)C(O)CCC(C)(C)O)[C@H](O)C[C@@]12C (stereo partly drawn) ?
## Output inactive

## Input Hi, sorry to bother you, what did the test record for `Cc1c(/C=N/NC(=S)N2CCCCC2)c(=O)n(-c2ccccc2)n1C` ?
## Output inactive

## Input Hi, sorry to bother you, what did the test record for `Cc1ccccc1NC(=N)Nc1ccccc1C` ?
## Output inactive

## Input Hi, sorry to bother you, what did the test record for COc1ccc(C2c3cc4c(cc3OC(NNc3ccccc3)C2C)OCO4)cc1 (stereo not drawn) ?
## Output inactive

## Input Hi, sorry to bother you, what did the test record for Cc1c2ccccc2c(C2C3C(=O)N(c4cccc5ccccc45)C(=O)C3ON2Cc2ccc(CC(N)=O)cc2)c2ccccc12 (stereo not drawn) ?
## Output inactive

## Input Hi, sorry to bother you, what did the test record for `Cc1cc(=O)oc2c(C)c(O)ccc12` ?
## Output inactive

## Input Hi, sorry to bother you, what did the test record for `CCCCc1ccc(Nc2nc(S)c3[nH]cnc3n2)cc1` ?
## Output inactive

## Input Hi, sorry to bother you, what did the test record for `O=C1Cc2c([nH]c3ccc(Br)cc23)-c2cc(O)c(O)cc2N1` ?
## Output inactive

## Input Hi, sorry to bother you, what did the test record for CCOC(=O)c1ccc(/N=N/N(C)C(=O)C(C)N)cc1 (stereo not drawn) ?
## Output inactive

## Input Hi, sorry to bother you, what did the test record for CC(=O)OC1CC2C(C)(C)C(=O)C=C[C@]2(C)C2CCC3(C)C(c4ccoc4)C(=O)[C@H]4O[C@]43[C@]12C (stereo partly drawn) ?
## Output inactive

## Input Hi, sorry to bother you, what did the test record for `CSC1=N[C@H](c2ccccc2)CS1` ?
## Output inactive

## Input Hi, sorry to bother you, what did the test record for `COc1ccc(OC)c([N+](=O)[O-])c1-c1nc2sc(Cl)cn2c1/C=N/N=C(N)N` ?
## Output inactive

## Input Hi, sorry to bother you, what did the test record for `Nc1cccc(S(=O)(=O)NCC(=O)O)c1` ?
## Output inactive

## Input Hi, sorry to bother you, what did the test record for `CCOC(=O)Oc1cc2ccsc2c2c1c1ccccc1n2C(=O)OCC` ?
## Output inactive

## Input Hi, sorry to bother you, what did the test record for `COc1ccc(/C=C/C(=O)c2ccc(OC(=O)/C=C/c3ccccc3)cc2)cc1` ?
## Output inactive

## Input Hi, sorry to bother you, what did the test record for `CCCCCCCCCCNC(=S)OCCCC` ?
## Output inactive

## Input Hi, sorry to bother you, what did the test record for `CCOC(=O)C(=O)Nc1cccc(Cl)c1C` ?
## Output inactive

## Input Hi, sorry to bother you, what did the test record for `COc1cccc(CCNc2c(C#N)c3nc4ccccc4n3c3ccccc23)c1` ?
## Output active

## Input Hi, sorry to bother you, what did the test record for `O=C1c2ccccc2C(=O)N1NC1=NCCN1` ?
## Output inactive

## Input Hi, sorry to bother you, what did the test record for C=CCCCC1CCCNC1=O (stereo not drawn) ?
## Output inactive

## Input Hi, sorry to bother you, what did the test record for `Cc1ccccc1C(=O)Oc1ccc(O)cc1` ?
## Output inactive

## Input Hi, sorry to bother you, what did the test record for `O=[N+]([O-])c1ccc(C[P+]2(c3ccccc3)CCCCC2)cc1.[O-][Cl+3]([O-])([O-])[O-]` ?
## Output inactive

## Input Hi, sorry to bother you, what did the test record for `O=[N+]([O-])c1cccc(/N=N/c2c(O)ccc3ccccc23)c1` ?
## Output inactive

## Input Hi, sorry to bother you, what did the test record for O=c1c(O)cccn1C1OC(CO)C(O)C1O (stereo not drawn) ?
## Output inactive

## Input Hi, sorry to bother you, what did the test record for `Cc1ccc(C)c(NC(=O)NCc2ccc(Cl)cc2)c1` ?
## Output inactive

## Input Hi, sorry to bother you, what did the test record for `Cc1ccc(NC(=O)CC/C(CC(=O)c2ccc(Cl)cc2)=N\NC(=O)C(=O)NN)cc1C` ?
## Output inactive

## Input Hi, sorry to bother you, what did the test record for `O=[N+]([O-])c1ccc(OCCNc2cccc3ccccc23)cc1` ?
## Output inactive

## Input Hi, sorry to bother you, what did the test record for `CCOC(=O)Cc1c(C)c2cc(C(=O)c3ccccc3)c(O)cc2oc1=O` ?
## Output inactive

## Input Hi, sorry to bother you, what did the test record for `NC(=S)NNC(=O)/C(=C/c1ccc(/C=C(\NC(=O)c2ccccc2)C(=O)NNC(N)=S)cc1)NC(=O)c1ccccc1` ?
## Output inactive

## Input Hi, sorry to bother you, what did the test record for C/C1=C/C(C)CC(C)OC(=O)C(C)NC(=O)C(Cc2ccc(O)c(I)c2)N(C)C(=O)C(C)NC(=O)C(C)C1 (stereo not drawn) ?
## Output active

## Input Hi, sorry to bother you, what did the test record for `COc1cc2c(cc1O)CC[n+]1cc3c(OC)c(OC)ccc3cc1-2` ?
## Output inactive

## Input Hi, sorry to bother you, what did the test record for `O=C(c1ccccc1)c1nc2ccc(Cl)cc2c2c1CCCO2` ?
## Output inactive

## Input Hi, sorry to bother you, what did the test record for `O=c1[nH]nc(Cc2ccccc2)n1/N=C/c1ccc([N+](=O)[O-])o1` ?
## Output inactive

## Input Hi, sorry to bother you, what did the test record for `COc1cc(O)c2c(=O)cc(C3(O)C=CC(=O)C=C3)oc2c1` ?
## Output active

## Input Hi, sorry to bother you, what did the test record for `Cc1cc(=O)oc2c(OS(C)(=O)=O)c(OS(C)(=O)=O)ccc12` ?
## Output inactive

## Input Hi, sorry to bother you, what did the test record for C=C(C)C1Cc2cc(C(C)=O)ccc2O1 (stereo not drawn) ?
## Output inactive

## Input Hi, sorry to bother you, what did the test record for `Cc1nnc(Sc2nc(C#N)c(C#N)nc2Sc2nnc(C)s2)s1` ?
## Output inactive

## Input Hi, sorry to bother you, what did the test record for CCC1OC(=O)CC(O)C(C)C(OC2OC(C)CC(N(C)C)C2O)C(CC=O)CC(C)C(=O)/C=C/C2(C)OC2C1C (stereo not drawn) ?
## Output inactive

* * *

Tested on: U-251
Assay: NCI tumour cell line growth inhibition, 48 h
Active and inactive are the calls of the source. No stated cut-off is given here; in the data, active = GI50 up to about 1.1 µM and inactive = higher.
# valid calls are active, inactive; nothing else

## Input Hi, sorry to bother you, what did the test record for `Cn1ccnc1Sc1ccc(/C=N/c2ccc3nc(SCC(=O)NC4CCCCC4)sc3c2)cc1[N+](=O)[O-]` ?
## Output inactive

## Input Hi, sorry to bother you, what did the test record for Nc1nc(O)c2ncn(C3C=CC(CO)O3)c2n1 (stereo unspecified) ?
## Output inactive

## Input Hi, sorry to bother you, what did the test record for `CCCCNC(=S)Nc1nc(C(=O)NNC(=O)c2ccccc2)cs1` ?
## Output inactive

## Input Hi, sorry to bother you, what did the test record for C=CCCCC1CCCNC1=O (stereo unspecified) ?
## Output inactive

## Input Hi, sorry to bother you, what did the test record for `O=[N+]([O-])c1ccc(Cl)cc1N/N=C/c1ccnc2ccccc12` ?
## Output inactive

## Input Hi, sorry to bother you, what did the test record for `CCn1c(-c2ccc(F)cc2)nc2c1C(=O)c1ccccc1C2=O` ?
## Output inactive

## Input Hi, sorry to bother you, what did the test record for `CCOC(=O)NC1=C(N2CC2)C(=O)C(NC(=O)OCC)=C(N2CC2)C1=O` ?
## Output inactive

## Input Hi, sorry to bother you, what did the test record for `O=C(O)CN1CCN(CC(=O)N2CCN(C(=O)OCc3ccccc3)CC2)CCN(CC(=O)O)CCN(CC(=O)N2CCN(C(=O)OCc3ccccc3)CC2)CC1` ?
## Output inactive

## Input Hi, sorry to bother you, what did the test record for `Cc1cc2c3c(coc3c1-c1c(C)cc3c4c(coc14)C(=O)C(O)=C3C(C)C)C(=O)C(O)=C2C(C)C` ?
## Output inactive

## Input Hi, sorry to bother you, what did the test record for `N#CC(C#N)=C1CCCS(=O)(=O)c2ccccc21` ?
## Output inactive

## Input Hi, sorry to bother you, what did the test record for O=C(O)CCC1CCc2cccc(O)c2C1=O (stereo unspecified) ?
## Output inactive

## Input Hi, sorry to bother you, what did the test record for CC(=O)C1Cn2c(=O)c3cc4ccccc4cc3c(=O)n2C=C1C (stereo unspecified) ?
## Output inactive

## Input Hi, sorry to bother you, what did the test record for CCN1C/C(=C\c2cc(OC)c(OC)c(OC)c2)C2=NN(c3ccccc3)C(c3cc(OC)c(OC)c(OC)c3)C2C1 (stereo unspecified) ?
## Output active

## Input Hi, sorry to bother you, what did the test record for COc1ccc(-c2c(C#N)c(N)n(C3OC(CO)C(O)C(O)C3O)c(=S)c2C#N)cc1 (stereo unspecified) ?
## Output inactive

## Input Hi, sorry to bother you, what did the test record for CC(=O)OCC1OC(O[C@@H]2C[C@H]3C(C)(C)[C@H](OC(C)=O)CC[C@]3(C)[C@H]3CCC4=C([C@@H](C)C[C@@H](O)[C@H](O)C(C)(C)O)CC[C@@]4(C)[C@@]32C)C(O)C(O)C1O (stereo partly specified) ?
## Output inactive

## Input Hi, sorry to bother you, what did the test record for CC(=O)OCC(OC(C)=O)C(OC(C)=O)C(/C=N/N(C(C)=O)S(=O)(=O)c1ccc(/C=C2\NC(=O)NC2=O)cc1)OC(C)=O (stereo unspecified) ?
## Output inactive

## Input Hi, sorry to bother you, what did the test record for Cc1c2cnccc2c(C)c2c1c1ccccc1n2CC1CO1 (stereo unspecified) ?
## Output inactive

## Input Hi, sorry to bother you, what did the test record for `COc1ccc(S(=O)(=O)N(CC(=O)O)c2ccccc2)cc1` ?
## Output inactive

## Input Hi, sorry to bother you, what did the test record for `Nc1cccc(S(=O)(=O)NCC(=O)O)c1` ?
## Output inactive

## Input Hi, sorry to bother you, what did the test record for `Cc1nc(=O)[nH]c(NCCNCCO)c1C(=O)Nc1cccc2cc3ccccc3cc12` ?
## Output inactive

## Input Hi, sorry to bother you, what did the test record for CC1(C)OC(CP(c2ccccc2)c2ccccc2)C(CP(c2ccccc2)c2ccccc2)O1 (stereo unspecified) ?
## Output active
